Reference source: the supplement of paper PMC9112550

# reported shrunken log2 fold change; entries follow
Test system: Escherichia coli TOP10;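 note: peptides expressed intracellularly from a pBAD plasmid library in pooled LB shake-flask culture, induced with 0.3% L-arabinose, DNA abundance read by NGS, three biological replicates, DESeq2 with apeglm shrinkage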
Experiment: shrunken log2 fold change of peptide-encoding DNA abundance (4.5 h post-induction vs induction); higher = less antimicrobial activity (less host growth inhibition)
Conditions: time post-induction: 4.5 h; library: site-saturation at positions 5, 18, 19, 20
Kindly provide the number alone.

Worked examples, 5 sequences total:
[[record]]
sequence = "RRIRTRPPRLPRPRPRPWATPRP"
system_under_test = "Escherichia coli TOP10"
recorded_metric = "shrunken log2 fold change"
result_number = -0.00422

[[record]]
sequence = "RRIRFRPPRLPRPRPRPKKNPRP"
system_under_test = "Escherichia coli TOP10"
recorded_metric = "shrunken log2 fold change"
result_number = 0.0769

[[record]]
sequence = "RRIRHRPPRLPRPRPRPKGLPRP"
system_under_test = "Escherichia coli TOP10"
recorded_metric = "shrunken log2 fold change"
result_number = 0.0749

[[record]]
sequence = "RRIRWRPPRLPRPRPRPDGAPRP"
system_under_test = "Escherichia coli TOP10"
recorded_metric = "shrunken log2 fold change"
result_number = 0.227

[[record]]
sequence = "RRIRHRPPRLPRPRPRPRWFPRP"
system_under_test = "Escherichia coli TOP10"
recorded_metric = "shrunken log2 fold change"
result_number = 0.161


[Q] Given the sequence `RRIRLRPPRLPRPRPRPEGRPRP` , write its reported shrunken log2 fold change.
[A] 1.11

[Q] Given the sequence `RRIRPRPPRLPRPRPRPMYTPRP` , write its reported shrunken log2 fold change.
[A] -0.236

[Q] Given the sequence `RRIRARPPRLPRPRPRPLGAPRP` , write its reported shrunken log2 fold change.
[A] 0.726

[Q] Given the sequence `RRIRIRPPRLPRPRPRPKKYPRP` , write its reported shrunken log2 fold change.
[A] -0.546

[Q] Given the sequence `RRIRLRPPRLPRPRPRPCWLPRP` , write its reported shrunken log2 fold change.
[A] 0.0345

[Q] Given the sequence `RRIRNRPPRLPRPRPRPIPPPRP` , write its reported shrunken log2 fold change.
[A] -0.0301
